- Test system: Chenopodium album
- experiment.description: Farming soil treatment test
- Type: in vivo
- condition.details: 10 g a.i./10 a; soil surface spray prior to weed growth; 30 days
metric: herbicidal efficacy, Chenopodium album

Provide Chenopodium album herbicidal efficacy, Chenopodium album reading for N#Cc1cnn(-c2nn3c(c2Cl)CCCC3)c1/C=C/c1ccccn1 [Compound 3.43, reference compound] .
3 (30% to less than 40%)

Given N#Cc1cnn(-c2nn3c(c2Cl)CCCC3)c1/C=C/c1ncccn1 [Compound 3.39, reference compound] , report its herbicidal efficacy, Chenopodium album on Chenopodium album.
4 (40% to less than 50%)

Determine reported herbicidal efficacy, Chenopodium album for N#Cc1cnn(-c2nn3c(c2Cl)CCCC3)c1N=Cc1cccnc1 ; test system: Chenopodium album.
10 (100%)

# assay system Chenopodium album: give herbicidal efficacy, Chenopodium album of N#Cc1cnn(-c2nn3c(c2Br)CCCC3)c1/C=C/c1ccccn1 [Compound 3.44, reference compound]
3 (30% to less than 40%)

Quote Chenopodium album herbicidal efficacy, Chenopodium album for entry N#Cc1cnn(-c2nn3c(c2Cl)CCCC3)c1N=Cc1ccncc1 .
10 (100%)

Look up Chenopodium album data: herbicidal efficacy, Chenopodium album of N#Cc1cnn(-c2nn3c(c2Cl)CCCC3)c1N=CC1CCCCC1 , then report it.
10 (100%)

Give reported herbicidal efficacy, Chenopodium album for COC=Nc1c(C#N)cnn1-c1nn2c(c1Cl)CCCC2 (Chenopodium album)
9 (90% to less than 100%)

FYI, the data here is from patent US10165777B2.
